Molecular target: MIA (Homo sapiens, UniProt Q16674)
Sequence (Q16674 25-131): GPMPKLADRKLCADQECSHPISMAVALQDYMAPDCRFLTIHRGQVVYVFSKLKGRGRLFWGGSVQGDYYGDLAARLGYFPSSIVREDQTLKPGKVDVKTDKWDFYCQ
Test: Boyden Chamber assay, melanoma cell invasion with and without MIA
Type: cell-based
Property Label: effect on MIA function (melanoma cell invasion)

[[record]]
sequence_chain = "NSLLVSWQPPRAR (from phage display screening) [SEQ ID NO:24, fibronectin-derived peptide]"
recorded_result = "block MIA function"

[[record]]
sequence_chain = "ETTIVITWTPAPR (from phage display screening) [SEQ ID NO:22, fibronectin-derived peptide]"
recorded_result = "block MIA function"

[[record]]
sequence_chain = "TSLLISWDAPAVT (from phage display screening) [SEQ ID NO:23, fibronectin-derived peptide]"
recorded_result = "block MIA function"


Taken from patent US8148493B2.
